In this section we review reported log10(IC50) values for a set of compounds.
tested on: SGC-7901; test: Antiproliferative activity against human SGC-7901 cells assessed as inhibition of cell growth incubated for 72 hrs by MTT assay; type: functional, cell-based; details: SGC-7901, 72 h
Field: value | Transform: log10 | Quantity: IC50 | Unit: nM

Would you please look over these solved cases?
COc1cc(-c2ccnc3ccc(-c4cccnc4)cc23)cc(OC)c1OC | 3.96
COc1ccc(-c2ccc3nccc(-c4cc(OC)c(OC)c(OC)c4)c3c2)cc1OC | 2.94
COc1ccc(/C=C\c2cc(OC)c(OC)c(OC)c2)cc1O | 2.08
COc1ccccc1-c1ccc2nccc(-c3cc(OC)c(OC)c(OC)c3)c2c1 | 4.24

Turning to the following compound.
[Q] I'd like to know its log10(IC50). The compound in question is COc1cc(-c2ccnc3ccc(-c4ccc(O)cc4)cc23)cc(OC)c1OC
[A] 3.28

###

In this section we review reported log10 IC50 values for a set of molecules.
system: MCF7; assay: cells; conditions: Homo sapiens, MCF7, 72 h
Description: Antiproliferative activity against human MCF7 cells assessed as inhibition of cell growth incubated for 72 hrs by MTT assay
Field: value | Transform: log10 | Quantity: IC50 | Unit: µM

Would you please look over these solved cases?
COc1cc(-c2ccnc3ccc(-c4cccc5[nH]ccc45)cc23)cc(OC)c1OC | -0.89
COc1ccc(-c2ccc3nccc(-c4cc(OC)c(OC)c(OC)c4)c3c2)cc1OC | -0.02
COc1cc(-c2ccnc3ccc(-c4ccc(F)cc4)cc23)cc(OC)c1OC | 1.23
COc1cc(-c2ccnc3ccc(-c4cccc(C)c4)cc23)cc(OC)c1OC | 1.25
COc1cc(-c2ccnc3ccc(-c4ccncc4)cc23)cc(OC)c1OC | 1.65
CCOc1ccc(-c2ccc3nccc(-c4cc(OC)c(OC)c(OC)c4)c3c2)cc1 | 0.49
COc1cc(-c2ccnc3ccc(-c4ccsc4)cc23)cc(OC)c1OC | 0.35
COc1cccc(-c2ccc3nccc(-c4cc(OC)c(OC)c(OC)c4)c3c2)c1 | 1.24

[Q] I'd like to know its log10 IC50. The molecule in question is COc1cc(-c2ccnc3ccc(-c4cccnc4)cc23)cc(OC)c1OC
[A] 1.34

[Q] Then COc1ccc(-c2ccc3nccc(-c4cc(OC)c(OC)c(OC)c4)c3c2)cc1 ?
[A] -0.48

[Q] Then COc1ccc(-c2ccc3nccc(-c4cc(OC)c(OC)c(OC)c4)c3c2)cc1O ?
[A] 0.56

###

tested on: MCF7; experiment: cells; details: Homo sapiens, MCF7, 72 h
Cut-off 1000 nM on IC50: below means 1 (yes), at or above means 0 (no).

COc1cc(-c2ccnc3ccc(-c4ccccc4)cc23)cc(OC)c1OC | 0 (no)
COc1cc(-c2ccnc3ccc(-c4ccc(C)cc4)cc23)cc(OC)c1OC | 0 (no)
COc1ccc(/C=C\c2cc(OC)c(OC)c(OC)c2)cc1O | 1 (yes)
COc1cc(-c2ccnc3ccc(-c4ccc(Cl)cc4)cc23)cc(OC)c1OC | 0 (no)

// next entry
[Q] Strictly below 1000 nM in IC50? COc1cc(-c2ccnc3ccc(-c4ccc(C)c(C)c4)cc23)cc(OC)c1OC
[A] 0 (no)

###

test system: SGC-7901; test: Antiproliferative activity against human SGC-7901 cells assessed as inhibition of cell growth incubated for 72 hrs by MTT assay; format: functional, cell-based; settings: SGC-7901, 72 h
pIC50: −log10 of the molar value.
Everything with pIC50 lower than 6 is not fulfilled; everything else, including exactly 6, is fulfilled.

# count of solved cases: 3
COc1cc(-c2ccnc3ccc(-c4cccc5[nH]ccc45)cc23)cc(OC)c1OC | fulfilled
COc1cc(-c2ccnc3ccc(-c4ccsc4)cc23)cc(OC)c1OC | not fulfilled
COc1cc(-c2ccnc3ccc(-c4ccc(C)c(C)c4)cc23)cc(OC)c1OC | not fulfilled

// next entry
[Q] Could you verify whether the entry COc1cc(-c2ccnc3ccc(-c4ccc(F)cc4)cc23)cc(OC)c1OC shows pIC50 of no less than 6?
[A] not fulfilled

###

In this section we review reported IC50 at 72 h values for a set of compounds.
test: Cytotoxicity against human HUVEC cells incubated for 72 hrs by MTT assay; type: toxicity, cell-based
Please reply with the bare figure in µM and do not write the unit itself.

COc1ccc(/C=C\c2cc(OC)c(OC)c(OC)c2)cc1O | 0.32

[Q] I'd like to know its IC50 at 72 h. The compound in question is COc1cc(-c2ccnc3ccc(-c4cccc5[nH]ccc45)cc23)cc(OC)c1OC
[A] 5.82

###

system: SGC-7901; assay: Antiproliferative activity against human SGC-7901 cells assessed as inhibition of cell growth incubated for 72 hrs by MTT assay; type: functional, cell-based; conditions: SGC-7901, 72 h
measure.name: IC50 (µM)
Please reply with the bare figure in µM and do not write the unit itself.

COc1cc(-c2ccnc3ccc(-c4cccc(C)c4)cc23)cc(OC)c1OC | 35
COc1cc(-c2ccnc3ccc(-c4ccc([N+](=O)[O-])cc4)cc23)cc(OC)c1OC | 20.3
COc1cc(-c2ccnc3ccc(-c4ccccc4)cc23)cc(OC)c1OC | 7.92
COc1ccc(-c2ccc3nccc(-c4cc(OC)c(OC)c(OC)c4)c3c2)cc1O | 25.3

Turning to the following compound.
[Q] I'd like to know its IC50. The compound in question is COc1cc(-c2ccnc3ccc(-c4ccc(C)cc4)cc23)cc(OC)c1OC
[A] 0.6

###

system: SGC-7901; test: Antiproliferative activity against human SGC-7901 cells assessed as inhibition of cell growth incubated for 72 hrs by MTT assay; assay type: functional, cell-based; settings: SGC-7901, 72 h
measure.name: IC50 (µM)
Please reply with the bare figure in µM and do not write the unit itself.

Would you please look over these solved cases?
COc1cc(-c2ccnc3ccc(-c4ccc(Cl)cc4)cc23)cc(OC)c1OC | 12.1
CCOc1ccc(-c2ccc3nccc(-c4cc(OC)c(OC)c(OC)c4)c3c2)cc1 | 3.87

[Q] I'd like to know its IC50. The compound in question is COc1cc(-c2ccnc3ccc(-c4ccc(C#N)cc4)cc23)cc(OC)c1OC
[A] 7.33
